- system_tested: Cytochrome P450 1A2 (Homo sapiens) (UniProt P05177)
- Sequence (P05177 whole entry, looked up): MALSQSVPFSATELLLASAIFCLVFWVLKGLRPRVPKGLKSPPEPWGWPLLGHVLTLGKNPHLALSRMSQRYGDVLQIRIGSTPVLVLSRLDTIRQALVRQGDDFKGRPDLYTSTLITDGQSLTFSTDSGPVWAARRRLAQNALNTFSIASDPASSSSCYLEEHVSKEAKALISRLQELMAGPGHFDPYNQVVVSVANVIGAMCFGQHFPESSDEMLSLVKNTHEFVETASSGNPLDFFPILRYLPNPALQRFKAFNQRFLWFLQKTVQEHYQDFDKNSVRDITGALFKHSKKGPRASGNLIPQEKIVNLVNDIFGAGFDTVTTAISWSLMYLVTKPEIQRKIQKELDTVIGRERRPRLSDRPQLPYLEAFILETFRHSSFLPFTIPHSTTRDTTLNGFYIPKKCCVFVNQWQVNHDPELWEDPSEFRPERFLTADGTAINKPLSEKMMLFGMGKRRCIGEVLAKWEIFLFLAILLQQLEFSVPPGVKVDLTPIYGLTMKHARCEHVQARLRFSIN
- run_description: Cytochrome panel assay with activity outcomes
- condition_notes: recombinant CYP, pro-luciferin dealkylation, luminescence, p450-cyp1a2; series mostly up to 57.1 µM
Among all 16,000 compounds or so, about 5,700 (36%) were called active. Another 24% or so got no clear call; they are omitted. Calls follow the shape of the dose curve; as a rule, active = well fitted curve in the direction sought with a large enough effect; inconclusive = small, poorly fitted or top-dose-only effect, or effect the other way; inactive = no such curve, though single readings can be large or run the other way. This is one part of the list.
Give one outcome, nothing more. List: 1.0 (active), 0.0 (inactive)

# fetch the recorded call for CC1=NN(c2ccc(C)cc2C)C(=O)C1C(c1ccccc1)C1C(=O)N(c2ccc(C)cc2C)N=C1C (stereo not given) here
0.0

Test call, this compound: `COc1ccccc1CN1CC[C@@]2(CCCN(C(=O)c3c(C)noc3C)C2)C1`
0.0

Returns: the outcome recorded for COC(=O)C1C(O)=C(C=NCc2ccccc2)C(=O)CC1(C)C (stereo not given) in this assay.
0.0

For this compound, state the assay outcome: `COc1ccc(CNc2nc(-c3c(C)noc3C)nc3ccccc23)c(OC)c1`
1.0

Called result for `CNC(=O)[C@@H]1O[C@@H](n2cnc3c(N)ncnc32)[C@@H](O)[C@H]1O`
0.0

----------
- system_tested: Cytochrome P450 1A2 (Homo sapiens) (UniProt P05177)
- run_description: Cytochrome panel assay with activity outcomes
- condition_notes: recombinant CYP, pro-luciferin dealkylation, luminescence, p450-cyp1a2; series mostly up to 57.1 µM
In all, about 16,000 compounds went through this assay and about 5,700 (36%) were called active. Another 24% or so got no clear call; they are omitted. The call rests on the fitted dose curve; in most records, active means well fitted curve in the direction sought with a large enough effect; inconclusive means small, poorly fitted or top-dose-only effect, or effect the other way; inactive means no such curve, though single readings can be large or run the other way. The list shows a part of the results.
Answer with one of the outcomes yes = active, no = inactive

Look up the recorded call for `NCCCCC(=O)O` in this test.
no

What did the test return for `CCCCCCC/C=C\CCCCCCCCC(=O)O` ?
yes

# outcome recorded in this test, key = `N#Cc1c(NC(=O)C(F)(F)F)sc2c3c(=O)c4ccccc4c(=O)c=3oc3ccccc3c12`
yes

# lookup: test call for `Cc1ccc(-n2nnnc2SCC(=O)NNC(=O)c2ccco2)c(C)c1`
no

So what was the verdict on `COc1ncc2ncc(=O)n(C)c2n1` in this test?
yes

What did this assay record as the result for `COc1ccc(/C=C/C(=O)Nc2nc(C)cc(C)n2)cc1OC` ?
yes

How was `O=C(O)c1cccnc1SCC(=O)N1CCCCCC1` classified in this test?
no

Assay result, entry `NCCCCCC(=O)O` — outcome?
no

How was `C=CCSc1ncccc1C(=O)NCc1ccc(C)cc1` classified in this test?
yes

Test call for this molecule, please: `CCCCCCCCCCCCCCSCC(=O)O`
no

Give the logged outcome of this assay for the following molecule: `C=CCc1cccc2cc(C(=O)N(CC)CC)c(=O)oc12`
yes

Hi, sorry to bother you, what did the test record for `C[C@@H](C(=O)O)c1ccc(C[C@@H]2CCCC2=O)cc1` ?
no

Test call, this molecule: `Cc1ccccc1Oc1ncnc2sccc12`
yes

----------
- system_tested: Cytochrome P450 1A2 (Homo sapiens) (UniProt P05177)
- run_description: Cytochrome panel assay with activity outcomes
- condition_notes: recombinant CYP, pro-luciferin dealkylation, luminescence, p450-cyp1a2; series mostly up to 57.1 µM
Among all 16,000 compounds or so, about 5,700 (36%) were called active. Roughly 24% stayed inconclusive and do not appear here. Calls follow the shape of the dose curve; as a rule, active = well fitted curve in the direction sought with a large enough effect; inconclusive = small, poorly fitted or top-dose-only effect, or effect the other way; inactive = no such curve, though single readings can be large or run the other way. The list shows a part of the results.
Result category, one only: class 1 = active, class 0 = inactive

For this compound, state the assay outcome: `O=C(N/N=C/c1cccc(Oc2ccccc2)c1)c1cccc(Br)c1`
class 1

Each compound tested received a call. Report the one for `c1ccc(-n2ncc3c2ncn2cnnc32)cc1` .
class 1

Per the records of this test, what outcome belongs to `CC(=O)Nc1ccc(Nc2ncnc3c2cnn3-c2ccccc2)cc1` ?
class 0

Test call, this compound: `CCCCCCCCC(=O)N/N=C/c1ccccn1`
class 1

What call does the record list for CC1=C(C(=O)OCc2ccccc2)C(c2cccnc2)c2c(n(C)c(=O)n(C)c2=O)N1 (stereo unspecified) ?
class 0

What is the recorded call for this compound in the test? `CCN(CC)C(=O)C(=O)N/N=C/c1cccc(Br)c1`
class 1

Check the results log: what was the call for `Cc1ncn(-c2ccccc2O)c1C` ?
class 1

# outcome recorded in this test, key = O=C1C2C3C=CC(C3)C2C(=O)N1c1ncn[nH]1 (stereo unspecified)
class 0

Which outcome was assigned to CC1=C(C(=O)OCc2ccccc2)C(c2ccccc2)NC(=O)N1CCCCCC(=O)O (stereo unspecified) in this test?
class 1

What classification did `N=C(N)SCCc1ccc(OCc2ccc([N+](=O)[O-])cc2)cc1` end up with in this test?
class 1

Hi, sorry to bother you, what did the test record for O=C(N/N=C/C1C(c2ccccc2)C1(Cl)Cl)c1cccc(Br)c1 (stereo unspecified) ?
class 1

----------
- system_tested: Cytochrome P450 1A2 (Homo sapiens)
- run_description: Cytochrome panel assay with activity outcomes
- condition_notes: recombinant CYP, pro-luciferin dealkylation, luminescence, p450-cyp1a2; series mostly up to 57.1 µM
- Method: The P450 gene superfamily is involved in the metabolism and clearance of xenobiotics. This assay used various human CYP P450 isozymes to measure the dealkylation of various pro-luciferin substrates to luciferin. The luciferin is then measured by luminescence after the addition of a luciferase detection reagent. […] Inhibitors and some substrates limit the production of luciferin, and decrease measured luminescence. […] 8, Detection, 1 sec, ViewLux luminescent read […]
About 5,700 (36%) of roughly 16,000 compounds were called active. About 24% were inconclusive and are not listed. The list shows a part of the results.
observable: AC50

A selection of reference data follows.
{"compound": "CCC/C=C(\\CCC)C(NC(=O)C(C)(C)C)c1ccc(C(=O)OC)cc1 (stereo unspecified)", "AC50": "inactive"}
{"compound": "CCNC(=O)C/C(C)=N/NC(=O)C12CC3CC(CC(C3)C1)C2", "AC50": "inactive"}
{"compound": "O=C(C=C1SCCS1)/C=C/c1ccco1", "AC50": "11.2 µM (active)"}
{"compound": "Cc1cc(OC(=O)c2ccccc2Cl)cc(=O)n1C", "AC50": "3.55 µM (active)"}
{"compound": "OCCNc1nc2ccccc2[nH]1", "AC50": "inactive"}

Please examine the following record next.
Kindly note the recorded AC50 for CCC/C=C(\CCC)C(NC(=O)c1ccc(C(F)(F)F)cc1)c1ccc(C(F)(F)F)cc1 (stereo unspecified) , which is inactive
